methodSummary: NCI Yeast Anticancer Drug Screen. Data for the CLN2oe strain (AID 163);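 further: 0% = growth of vehicle-only control cultures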
conditionLabel: S. cerevisiae CLN2oe strain, at 3.7 µM, stronger effect = higher value
Protocol: Growth inhibition of yeast strains with defined genetic alterations is measured as a screen for potential anti-cancer activity. Selected strains with alterations in DNA damage repair or cell cycle control were exposed to compounds and growth inhibition was measured relative to vehicle treated controls. The strain used in this assay is CLN2oe
Compounds without any hit were thinned out: in the full panel of roughly 79,000, 15% have a hit.
measureName: growth inhibition (%)

> print(dat)
                                    molecule  reported
 1  Cc1ccc(S(=O)(=O)NNC(=S)Nc2cccc3ccccc23)cc1       -14
 2  CCC(C)COC(=O)c1ccc(N=Cc2ccc(C=Nc3ccc(C(=O)OCC(C)CC)cc3)cc2)cc1 (stereo not given)         0
 3               CC1=NN(c2cccc(Cl)c2)C(=O)C1        -4
 4   O=C1c2cc([N+](=O)[O-])ccc2-c2cccc(F)c21         0
 5        CC(=O)OCCOCNC(=S)N/N=C(\C)c1cnccn1         2
 6  [N-]=[N+]=NC1=C(c2ccccn2)C(=O)c2cccc3cccc1c23         1
 7  O=[N+]([O-])c1cc2no[n+]([O-])c2cc1N1CCCCC1        60
 8                  N#CSc1ccc(S(N)(=O)=O)cc1       -13
 9              CC1=C(SCCO)C(=O)c2ccccc2C1=O        -5
10          S=C(N/N=C/c1ccccn1)Nc1ccc(Cl)cc1       -14
11  CCCCCCCCCCCCCCC(C(=O)[O-])[n+]1ccccc1 (stereo not given)         3
12  C(CCSC1=NCCN1)CSC1=NCCN1 (tested in a mixture with another compound)         6
13                     CCCCCCCCCCCC(=O)N(C)C        19
14  O=C1C2C(C(=O)N1c1ccc(OCc3ccccc3)cc1)C1c3ccccc3C2C2CCCCN21 (stereo not given)       -10
15  COc1ccc(/C(C)=N/OC(=O)c2c(-c3ccccc3Cl)noc2C)cc1CN1CCOCC1        -7
16  O=C(c1ccc(Cl)cc1)C1OC12C(=O)Nc1ccccc12 (stereo not given)        40
17    Cc1ccc(NN(NC(=O)OC(C)C)C(=O)OC(C)C)cc1       -11
18        [O-][n+]1c2ccc(O)cc2nc2ccc(Cl)cc21         9
19  CC(=O)Nc1ccc2c(c1)C(=Nc1ccc(C(=O)O)cc1)c1ccccc1-2       -11
20  CN1CCc2ccccc2C1Cc1ccccc1NC(=O)c1sc2ccccc2c1Cl (stereo not given)         7

---

methodSummary: NCI Yeast Anticancer Drug Screen. Data for the wt2 strain (AID 169);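 further: 0% = growth of vehicle-treated yeast cultures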
conditionLabel: S. cerevisiae wt2 strain growth inhibition; at 3.7 µM; stronger effect = higher value
Compounds without any hit were thinned out: in the full panel of roughly 79,000, 15% have a hit.
Entries and their growth inhibition

compound	readingUnit	growth inhibition
Cn1ccnc1Oc1ccc(Cl)cc1	%	7
CCOC(=O)c1cc([N+](=O)[O-])cc([N+](=O)[O-])c1Sc1ncnc2nc[nH]c12	%	-22
CC(C)=CC(=O)O[C@@H]1CC(C)(C)CC2C3=CCC4[C@]56CC[C@](O)(OC5)C(C)(C)C6CC[C@@]4(C)C3(C)CC[C@]21C(=O)O (stereo not given in full)	%	18
CC(C)(CN1CCCCC1)C(=O)CC(SCCS(=O)(=O)O)c1ccc(Br)cc1 (stereo not given)	%	3
COc1cc(C(=O)/C=C/c2ccccc2O)ccc1O	%	50
COc1cc2c3c(cccc3c1)C(=O)N(CCN(C)C)C2=O	%	1
Cc1c(C(=O)C(=O)c2ccccc2)c(C)c(C(=O)C(=O)c2ccccc2)c(C)c1C(=O)C(=O)c1ccccc1	%	-1
CC[n+]1ccc2c(C)c3[nH]c4ccc(O)cc4c3c(C)c2c1	%	-6
O=C(N=Nc1ccccc1Cl)NNc1ccccc1Cl	%	0
CC(C)C1=CC2=C[C@H](O)[C@H]3C(C)(C)CCC[C@]3(C)C2=C(O)C1=O	%	57
O=C1C2C=CC1C1C(=O)OC(=O)C21 (stereo not given)	%	-9
Cc1ccc(-n2cc(-c3ccc(Cl)cc3)c(C#N)c2N)cc1	%	-1
COc1ccc2nc3c([N+](=O)[O-])ccc(NCCN(C)C)c3c(NCCN(C)C)c2c1	%	0
COc1ccc(/C(C)=N/OC(=O)c2c(-c3ccccc3Cl)noc2C)cc1CN1CCOCC1	%	-27
FC(F)(F)c1cc(NC(=S)N2c3ccccc3-n3cccc3C2c2cccnc2)cc(C(F)(F)F)c1 (stereo not given)	%	-3
CN1Cc2ccccc2/C=C\c2ccccc21	%	1
O=[N+]([O-])c1cc2no[n+]([O-])c2cc1N1CCCCC1	%	74
C[C@@H]1C[C@H]2[C@@H]3CCC4=CC(=O)C=C[C@]4(C)[C@@]3(Cl)[C@@H](Cl)C[C@]2(C)[C@@]1(O)C(=O)COP(=O)(O)O	%	-2
c1ccc2c(c1)-c1nc3ccccc3cc1C2N1CCOCC1 (stereo not given)	%	1
COc1ccc2ccc3ccccc3c2c1C=O	%	4

---

methodSummary: NCI Yeast Anticancer Drug Screen. Data for the sgs1 mgt1 strain (AID 161);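 further: 0% = growth of cultures given vehicle only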
conditionLabel: S. cerevisiae sgs1 mgt1 strain, at 50.0 µM (retest, dose inferred, filed as 5.0)
Compounds without any hit were thinned out: in the full panel of roughly 79,000, 15% have a hit. The source made the active and inactive calls. Rule as the data show it: active = growth inhibition above about 70%; inactive = the rest.
Possible outcomes: active, inactive

> print(dat)
                            structuresmiles  classassignment
1    COc1cc(/C=C2\CCc3ccccc3C2=O)cc(OC)c1OC         inactive
2  Cn1c2ccccc2c(=O)c2cc(NC(=O)CCCCC(=O)Nc3ccc4c(c3)c(=O)c3ccccc3n4C)ccc21         inactive
3  COc1ccc(NC(=S)N/N=C(\c2ccccc2)c2ccccn2)cc1           active
4            CC(=O)SCCC[Si](C)(C)CCCSC(C)=O         inactive

---

The following compounds are listed with their measured growth inhibition values.
methodSummary: NCI Yeast Anticancer Drug Screen. Data for the rad50EPP+ strain (AID 151);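 further: 0% = growth of vehicle-treated control cultures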
conditionLabel: S. cerevisiae rad50 mutant strain, at 1.2 µM, stronger effect = higher value
Description: Growth inhibition of yeast strains with defined genetic alterations is measured as a screen for potential anti-cancer activity. Selected strains with alterations in DNA damage repair or cell cycle control were exposed to compounds and growth inhibition was measured relative to vehicle treated controls. The strain used in this assay is rad50EPP+
The panel holds about 79,000 compounds, 15% with a hit somewhere; the sample as a whole holds those more often.
measureName: growth inhibition (%)

> print(dat)
                                    compound        measurename  readingunit  reported
 1  Cn1c2ccccc2c(=O)c2cc(NC(=O)CCCCC(=O)Nc3ccc4c(c3)c(=O)c3ccccc3n4C)ccc21  growth inhibition            %        -1
 2          CC(C)OC(=O)Oc1ccccc1OC(=O)OC(C)C  growth inhibition            %        -1
 3   COC(=O)c1cc(-c2ccc(C)cc2)[nH]c(=O)c1C#N  growth inhibition            %        -5
 4         CC(C)/C(Cl)=N\OC(=O)Nc1cccc(Cl)c1  growth inhibition            %        -2
 5  OCC(Cn1cncn1)(c1ccc(F)cc1F)n1cncn1 (stereo unspecified)  growth inhibition            %         2
 6  CCOC(=O)c1cc([N+](=O)[O-])cc([N+](=O)[O-])c1Sc1ncnc2nc[nH]c12  growth inhibition            %        -6
 7  CCC#CCCCOC(=O)c1cc([N+](=O)[O-])cc([N+](=O)[O-])c1  growth inhibition            %         3
 8  N#CC(C(=O)Nc1ccccc1)C1=C(Cl)C(=O)c2ccccc2C1=O (stereo unspecified)  growth inhibition            %        13
 9  CCN(CC)C(=S)N/N=C(/C)c1cccc(/C(C)=N\NC(=S)N(CC)CC)n1  growth inhibition            %        16
10  C=CCC1=C(C)C(OC(=O)/C=C/c2ccccc2)CC1=O (stereo unspecified)  growth inhibition            %        -1
11  C[C@H](CCC(=O)NN)[C@H]1CC[C@H]2[C@@H]3CC[C@@H]4C[C@H](O)CC[C@]4(C)[C@H]3CC[C@]12C  growth inhibition            %         0
12  CC(CC(C)(C)[N+](C)(C)C)[N+](C)(C)C (stereo unspecified)  growth inhibition            %        -1
13            O=C1c2ccccc2-c2n[nH]c3cccc1c23  growth inhibition            %         7
14  COC1=CC(=O)C(C2(OC(C)C)OC(=O)C(Cl)=C2Cl)=CC1=O (stereo unspecified)  growth inhibition            %         8
15  Cc1cc(S(=O)(=O)/N=C(/NN)NNc2cccc(C(F)(F)F)n2)c(S)cc1Cl  growth inhibition            %        -8
16  Cc1[nH]c2ccccc2c1C(c1ccc(N)cc1)c1c(C)[nH]c2ccccc12  growth inhibition            %         4
